# ASSAY DETAILS: PK of Sofosbuvir/Ledipasvir tablets fasted or with meals
# PROTOCOL CONDITIONS: plasma, po, AUClast, plasma analyte; Sofosbuvir/Ledipasvir Tablet, High-Calorie/High-Fat Meal; n = 29; mean (% CV)
VALUE TYPE: AUC(0-t) (ng·h/mL)
Report only the number, with the unit ng·h/mL understood.

### Prompt # input compound: `COC(=O)N[C@H](C(=O)N1CC2(CC2)C[C@H]1c1ncc(-c2ccc3c(c2)C(F)(F)c2cc(-c4ccc5nc([C@@H]6[C@H]7CC[C@H](C7)N6C(=O)[C@@H](NC(=O)OC)C(C)C)[nH]c5c4)ccc2-3)[nH]1)C(C)C` ; wanted: its AUC(0-t)
### Response 7550

###

# ASSAY DETAILS: clinical
# PROTOCOL CONDITIONS: in vivo, po, AUCinf, plasma analyte; Sofosbuvir/Ledipasvir Tablet, Fasted; n = 29; mean (% CV)
VALUE TYPE: AUC(0-inf)
Answer with the number, then the unit.

### Prompt Quick one: AUC(0-inf) for `CC(C)OC(=O)[C@H](C)N[P@](=O)(OC[C@H]1O[C@@H](n2ccc(=O)[nH]c2=O)[C@](C)(F)[C@@H]1O)Oc1ccccc1` ?
### Response 1520 ng·h/mL

###

# ASSAY DETAILS: Aqueous solubility with 0.1% w/w surfactants and polymers; dissolution behavior of forms
# Assay type: physicochemical
# PROTOCOL CONDITIONS: aqueous citrate buffer with excipient, pH 2, aqueous with cosolvent or surfactant or cyclodextrin, thermodynamic from solid, 0.1% w/w PVP (povidone), pH 2
VALUE TYPE: solubility (µg/mL)
Report the figure in µg/mL without appending any unit label.

### Prompt For the compound shown here, COC(=O)N[C@H](C(=O)N1CC2(CC2)C[C@H]1c1ncc(-c2ccc3c(c2)C(F)(F)c2cc(-c4ccc5nc([C@@H]6[C@H]7CC[C@H](C7)N6C(=O)[C@@H](NC(=O)OC)C(C)C)[nH]c5c4)ccc2-3)[nH]1)C(C)C [Ledipasvir amorphous free base] , give the reported solubility.
### Response 5470

###

# ASSAY DETAILS: Aqueous solubility with 0.1% w/w surfactants and polymers; dissolution behavior of forms
# Format: physicochemical
# PROTOCOL CONDITIONS: pH 2, aqueous with cosolvent or surfactant or cyclodextrin, thermodynamic from solid, 0.1% w/w HPC (hydroxypropylcellulose), pH 2
VALUE TYPE: solubility (µg/mL)
Numeric only. Scale: µg/mL

### Prompt # lookup: solubility of COC(=O)N[C@H](C(=O)N1CC2(CC2)C[C@H]1c1ncc(-c2ccc3c(c2)C(F)(F)c2cc(-c4ccc5nc([C@@H]6[C@H]7CC[C@H](C7)N6C(=O)[C@@H](NC(=O)OC)C(C)C)[nH]c5c4)ccc2-3)[nH]1)C(C)C [Ledipasvir amorphous free base]
### Response 4670

###

# ASSAY DETAILS: Aqueous solubility with 0.1% w/w surfactants and polymers; dissolution behavior of forms
# Assay type: physicochemical
# PROTOCOL CONDITIONS: aqueous citrate buffer with excipient, pH 5, aqueous with cosolvent or surfactant or cyclodextrin, thermodynamic from solid, 0.1% w/w PVP/VA (copovidone), pH 5
VALUE TYPE: solubility (µg/mL)
Report only the number, with the unit µg/mL understood.

### Prompt Which solubility value is on record for COC(=O)N[C@H](C(=O)N1CC2(CC2)C[C@H]1c1ncc(-c2ccc3c(c2)C(F)(F)c2cc(-c4ccc5nc([C@@H]6[C@H]7CC[C@H](C7)N6C(=O)[C@@H](NC(=O)OC)C(C)C)[nH]c5c4)ccc2-3)[nH]1)C(C)C [Ledipasvir amorphous free base] ?
### Response 1

###

# ASSAY DETAILS: Aqueous solubility with 0.1% w/w surfactants and polymers; dissolution behavior of forms
# Format: physicochemical
# PROTOCOL CONDITIONS: aqueous citrate buffer, no excipient, pH 5, aqueous buffer, thermodynamic from solid, pH 5, room temperature
VALUE TYPE: solubility
Note: state the figure and append the unit.

### Prompt GET /values?readout=solubility&item= COC(=O)N[C@H](C(=O)N1CC2(CC2)C[C@H]1c1ncc(-c2ccc3c(c2)C(F)(F)c2cc(-c4ccc5nc([C@@H]6[C@H]7CC[C@H](C7)N6C(=O)[C@@H](NC(=O)OC)C(C)C)[nH]c5c4)ccc2-3)[nH]1)C(C)C [Ledipasvir amorphous free base]
### Response 0.1 µg/mL

###

# ASSAY DETAILS: Aqueous solubility with 0.1% w/w surfactants and polymers; dissolution behavior of forms
# Format: physicochemical
# PROTOCOL CONDITIONS: pH 2, aqueous with cosolvent or surfactant or cyclodextrin, thermodynamic from solid, 0.1% w/w Labrasol, pH 2
VALUE TYPE: solubility
The reply should consist of the numeric value with the unit placed after it.

### Prompt If you can, please state the reported solubility value of COC(=O)N[C@H](C(=O)N1CC2(CC2)C[C@H]1c1ncc(-c2ccc3c(c2)C(F)(F)c2cc(-c4ccc5nc([C@@H]6[C@H]7CC[C@H](C7)N6C(=O)[C@@H](NC(=O)OC)C(C)C)[nH]c5c4)ccc2-3)[nH]1)C(C)C [Ledipasvir amorphous free base] .
### Response 7440 µg/mL

###

# ASSAY DETAILS: PK of Sofosbuvir/Ledipasvir tablets fasted or with meals
# PROTOCOL CONDITIONS: plasma, po, AUCinf, plasma analyte; Sofosbuvir/Ledipasvir Tablet, Moderate-Fat Meal; n = 29; mean (% CV)
VALUE TYPE: AUC(0-inf) (ng·h/mL)
Write the answer as a number in ng·h/mL, unit excluded.

### Prompt Record request: AUC(0-inf) value, item COC(=O)N[C@H](C(=O)N1CC2(CC2)C[C@H]1c1ncc(-c2ccc3c(c2)C(F)(F)c2cc(-c4ccc5nc([C@@H]6[C@H]7CC[C@H](C7)N6C(=O)[C@@H](NC(=O)OC)C(C)C)[nH]c5c4)ccc2-3)[nH]1)C(C)C [Ledipasvir]
### Response 10600

###

# ASSAY DETAILS: Pharmacokinetics of sofosbuvir and ledipasvir alone or in combination
# Assay type: in vivo
# PROTOCOL CONDITIONS: in vivo, po, plasma analyte; Sofosbuvir alone; n = 17; mean (% CV)
VALUE TYPE: Cmax (ng/mL)
Please respond with the number in ng/mL and leave the unit unwritten.

### Prompt Cmax for `CC(C)OC(=O)[C@H](C)N[P@](=O)(OC[C@H]1O[C@@H](n2ccc(=O)[nH]c2=O)[C@](C)(F)[C@@H]1O)Oc1ccccc1` ?
### Response 929

###

# ASSAY DETAILS: Aqueous solubility with 0.1% w/w surfactants and polymers; dissolution behavior of forms
# Format: physicochemical
# PROTOCOL CONDITIONS: pH 5, aqueous with cosolvent or surfactant or cyclodextrin, thermodynamic from solid, 0.1% w/w HPMC (hydroxymethylcellulose), pH 5
VALUE TYPE: solubility (µg/mL)
Please reply with the bare figure in µg/mL and do not write the unit itself.

### Prompt Requested read-out: solubility. Entry: COC(=O)N[C@H](C(=O)N1CC2(CC2)C[C@H]1c1ncc(-c2ccc3c(c2)C(F)(F)c2cc(-c4ccc5nc([C@@H]6[C@H]7CC[C@H](C7)N6C(=O)[C@@H](NC(=O)OC)C(C)C)[nH]c5c4)ccc2-3)[nH]1)C(C)C [Ledipasvir amorphous free base]
### Response 0.3

###

# ASSAY DETAILS: Aqueous solubility with 0.1% w/w surfactants and polymers; dissolution behavior of forms
# Assay type: physicochemical
# PROTOCOL CONDITIONS: aqueous citrate buffer with excipient, pH 5, aqueous with cosolvent or surfactant or cyclodextrin, thermodynamic from solid, 0.1% w/w PVP (povidone), pH 5
VALUE TYPE: solubility (µg/mL)
Please respond with the number in µg/mL and leave the unit unwritten.

### Prompt State the recorded solubility for this entry: COC(=O)N[C@H](C(=O)N1CC2(CC2)C[C@H]1c1ncc(-c2ccc3c(c2)C(F)(F)c2cc(-c4ccc5nc([C@@H]6[C@H]7CC[C@H](C7)N6C(=O)[C@@H](NC(=O)OC)C(C)C)[nH]c5c4)ccc2-3)[nH]1)C(C)C [Ledipasvir amorphous free base]
### Response 0.4

###

# ASSAY DETAILS: Aqueous solubility with 0.1% w/w surfactants and polymers; dissolution behavior of forms
# Format: physicochemical
# PROTOCOL CONDITIONS: pH 2, aqueous with cosolvent or surfactant or cyclodextrin, thermodynamic from solid, 0.1% w/w Polysorbate 80, pH 2
VALUE TYPE: solubility
Quick note: number first, unit second.

### Prompt Look up solubility for this compound: COC(=O)N[C@H](C(=O)N1CC2(CC2)C[C@H]1c1ncc(-c2ccc3c(c2)C(F)(F)c2cc(-c4ccc5nc([C@@H]6[C@H]7CC[C@H](C7)N6C(=O)[C@@H](NC(=O)OC)C(C)C)[nH]c5c4)ccc2-3)[nH]1)C(C)C [Ledipasvir amorphous free base]
### Response 9270 µg/mL

###

# ASSAY DETAILS: Aqueous solubility with 0.1% w/w surfactants and polymers; dissolution behavior of forms
# Format: physicochemical
# PROTOCOL CONDITIONS: pH 5, aqueous with cosolvent or surfactant or cyclodextrin, thermodynamic from solid, 0.1% w/w Polysorbate 80, pH 5
VALUE TYPE: solubility (µg/mL)
Note: unit µg/mL is implicit; provide only the numeric part.

### Prompt Query (molecule): COC(=O)N[C@H](C(=O)N1CC2(CC2)C[C@H]1c1ncc(-c2ccc3c(c2)C(F)(F)c2cc(-c4ccc5nc([C@@H]6[C@H]7CC[C@H](C7)N6C(=O)[C@@H](NC(=O)OC)C(C)C)[nH]c5c4)ccc2-3)[nH]1)C(C)C [Ledipasvir amorphous free base] ; field requested: solubility
### Response 62.4
